Biological target: 5-Lipoxygenase (Homo sapiens, UniProt P09917)
Construct: endogenous in cells; host or cells: human heparinized whole blood (blood leukocytes), stimulated with calcium ionophore A23187
Sequence (P09917 whole entry): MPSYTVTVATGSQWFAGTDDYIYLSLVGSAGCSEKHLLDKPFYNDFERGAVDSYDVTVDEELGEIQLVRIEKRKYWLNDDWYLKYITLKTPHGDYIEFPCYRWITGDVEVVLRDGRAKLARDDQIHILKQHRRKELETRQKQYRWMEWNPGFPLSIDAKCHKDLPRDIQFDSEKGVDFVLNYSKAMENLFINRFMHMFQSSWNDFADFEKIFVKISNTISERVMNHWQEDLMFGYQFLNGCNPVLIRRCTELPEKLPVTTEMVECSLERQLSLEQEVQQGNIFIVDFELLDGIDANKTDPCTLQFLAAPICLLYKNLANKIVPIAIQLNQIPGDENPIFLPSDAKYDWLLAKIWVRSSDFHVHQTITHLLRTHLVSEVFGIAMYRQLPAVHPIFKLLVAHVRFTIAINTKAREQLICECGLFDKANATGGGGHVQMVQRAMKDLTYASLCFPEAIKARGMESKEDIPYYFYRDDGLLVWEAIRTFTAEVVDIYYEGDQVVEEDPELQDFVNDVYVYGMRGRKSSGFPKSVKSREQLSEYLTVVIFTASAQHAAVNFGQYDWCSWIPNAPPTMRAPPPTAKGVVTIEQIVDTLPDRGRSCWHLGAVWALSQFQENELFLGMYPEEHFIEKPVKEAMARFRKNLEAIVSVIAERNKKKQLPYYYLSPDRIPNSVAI
Assay: Inhibition of calcium ionophore-induced LTB4 biosynthesis in human whole blood
Assay type: cell-based
Settings: at 12.5 μM; human whole blood, A23187 8.3 μM; read-out: % inhibition of stimulated LTB4 formation in human whole blood
recorded endpoint: inhibition at 12.5 µM
Lab note: write values as number then unit, every time.

Examples with answers:
compound	tgt	inhibition at 12.5 µM
COC1(/C=C/COCC#Cc2ccccn2)CCOCC1	5-Lipoxygenase (Homo sapiens, UniProt P09917)	18%
COC1(C#CC(C)OCc2ccc3ccccc3c2)CCOCC1 (stereo not shown)	5-Lipoxygenase (Homo sapiens, UniProt P09917)	95%
COC1(/C=C/C(C)OCc2ccc3ccccc3c2)CCOCC1 (stereo not shown)	5-Lipoxygenase (Homo sapiens, UniProt P09917)	99%

Here is the next item to consider.
Ask: # lookup: inhibition at 12.5 µM of `COC1(/C=C/COCc2ccc(-c3ccccc3)cc2)CCOCC1`
Reply: 11%
